# Tested on: cloned human or rodent CNS receptors, channels, and transporters (PDSP panel)
# ASSAY DETAILS: PDSP GPCR panel primary binding assays at 10 μM
# MEASUREMENT SETUP: Receptor Sigma 2; primary assay, 10 μM
PARAMETER MEASURED: Inhibition 1 (%)

>>> df
                                   molecule  reading
0  CCCCNc1ncc2c(-c3ccc(CN4CCN(C)CC4)cc3)cn([C@H]3CC[C@H](O)CC3)c2n1 [UNC2025C, UNC2025]    97.53
1  c1cn2cc(-c3ccc4cn[nH]c4c3)nc(Nc3ccc(N4CCOCC4)cc3)c2n1 [UNC10302678A, Entospletinib (GS-9973)]    10.94
2  Cl.NC(=O)c1cnc(N[C@@H]2CCCC[C@@H]2N)nc1Nc1cccc(-n2nccn2)c1 [UNC10302682A, P505-15 (PRT06207 HCl)]    57.01
3  O=c1oc2ccccc2cc1-c1cn2cc(Cc3ccc(F)cc3)sc2n1 [UNC10302680A, iMDK]    14.42
